Assay: concentration in rat plasma in the anticoagulant study after rectal application
Type: in vivo
Conditions: plasma, rectal 20 mg/kg, 30 min
QUANTITY: concentration at 0.5 h (ng/mL)
Give bare numbers, in ng/mL.

{"columns": ["MOLECULE", "concentration at 0.5 h / ng/mL"],
 "data": [
  ["CC(=O)N1CCN(C(=O)[C@H](Cc2cccc(C(=N)N)c2)NS(=O)(=O)c2ccc3ccccc3c2)CC1.Cl [Compound 2]", 5440]
]}

Proceeding to the next molecule to report its concentration at 0.5 h.
Q: Provide measured concentration at 0.5 h value, entry: CS(=O)(=O)N1CCN(C(=O)[C@H](Cc2cccc(C(=N)N)c2)NS(=O)(=O)c2ccc3ccccc3c2)CC1.Cl [Compound 5]
A: 1570

###

Biological target: plasma kallikrein (Homo sapiens)
Sequence (P03952 391-638 limits assumed, species assumed): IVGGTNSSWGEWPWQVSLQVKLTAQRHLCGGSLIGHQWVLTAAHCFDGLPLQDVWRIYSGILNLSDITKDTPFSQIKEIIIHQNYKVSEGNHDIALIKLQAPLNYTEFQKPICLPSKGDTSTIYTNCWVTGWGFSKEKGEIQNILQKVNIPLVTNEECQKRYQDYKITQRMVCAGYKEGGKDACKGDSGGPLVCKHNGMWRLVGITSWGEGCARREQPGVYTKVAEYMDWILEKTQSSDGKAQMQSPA
Sequence (P03952 20-390 partner limits assumed, species assumed): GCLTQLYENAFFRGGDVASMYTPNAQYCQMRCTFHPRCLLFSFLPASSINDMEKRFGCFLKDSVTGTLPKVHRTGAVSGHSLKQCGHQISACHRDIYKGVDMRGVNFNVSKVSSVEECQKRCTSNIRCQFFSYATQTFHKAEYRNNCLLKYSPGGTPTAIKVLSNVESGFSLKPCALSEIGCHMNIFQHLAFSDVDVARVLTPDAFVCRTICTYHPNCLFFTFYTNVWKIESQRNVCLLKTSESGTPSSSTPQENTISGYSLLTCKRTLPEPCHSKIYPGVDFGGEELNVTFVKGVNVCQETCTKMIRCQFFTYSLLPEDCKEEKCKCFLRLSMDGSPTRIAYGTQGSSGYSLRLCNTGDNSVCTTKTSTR
Assay: inhibition of plasma kallikrein, dissociation constant Ki
Please provide measured Ki for the entries that follow.
Answers are plain numbers, in µM.

{"columns": ["MOLECULE", "DISPLAY UNIT", "Ki"],
 "data": [
  ["Cc1ccc(S(=O)(=O)N2CCN(C(=O)C(Cc3cccc(C(=N)N)c3)NS(=O)(=O)c3ccc4ccccc4c3)CC2)cc1 (stereo not shown)", "µM", 30],
  ["CS(=O)(=O)N1CCN(C(=O)C(Cc2cccc(C(=N)N)c2)NS(=O)(=O)c2ccc3ccccc3c2)CC1 (stereo not shown)", "µM", 77],
  ["Cc1c(C)c(S(=O)(=O)NC(Cc2cccc(C(=N)N)c2)C(=O)N2CCN(C(=O)N(C)C)CC2)c(C)c2c1OC(C)(C)CC2 (stereo not shown)", "µM", 93],
  ["CC(=O)N1CCN(C(=O)C(Cc2cccc(C(=N)N)c2)NS(=O)(=O)c2c(C(C)C)cc(C(C)C)cc2C(C)C)CC1 (stereo not shown)", "µM", 7.3],
  ["Cc1c(C)c(S(=O)(=O)NC(Cc2cccc(C(=N)N)c2)C(=O)N2CCN(S(C)(=O)=O)CC2)c(C)c2c1OC(C)(C)CC2 (stereo not shown)", "µM", 140],
  ["N=C(N)c1cccc(CC(NS(=O)(=O)c2ccc3ccccc3c2)C(=O)N2CCN(CCO)CC2)c1 (stereo not shown)", "µM", 74],
  ["N=C(N)c1cccc(CC(NS(=O)(=O)c2ccc3ccccc3c2)C(=O)N2CCN(C(=O)Cc3cccs3)CC2)c1 (stereo not shown) [AMD 2-Naph drawing 11]", "µM", 19],
  ["Cc1c(C)c(S(=O)(=O)NC(Cc2cccc(C(=N)N)c2)C(=O)N2CCN(CCO)CC2)c(C)c2c1OC(C)(C)CC2 (stereo not shown)", "µM", 180]
]}

Hey, can you go through the list below and give me Ki for every item?
1. N=C(N)c1cccc(CC(NS(=O)(=O)c2ccc3ccccc3c2)C(=O)N2CCN(c3ccccn3)CC2)c1 (stereo not shown)
2. Cl.Cl.N=C(N)c1cccc(C[C@H](NS(=O)(=O)c2ccc3ccccc3c2)C(=O)N2CCN(CCO)CC2)c1 [Compound 3, dihydrochloride]

A:
19
25

###

Assay: plasma concentration in rats after rectal administration
Assay type: in vivo
Details: plasma; rat, rectal 100 mg/kg, 180 min
QUANTITY: concentration at 3 h
For clarity, give the value followed by its unit.

Hey, can you go through the list below and give me concentration at 3 h for every item?
1. CCOC(=O)N1CCN(C(=O)C(Cc2cccc(C(=N)N)c2)NS(=O)(=O)c2ccc3ccccc3c2)CC1 (racemic) [X, reference compound]
2. CC(=O)N1CCN(C(=O)[C@H](Cc2cccc(C(=N)N)c2)NS(=O)(=O)c2ccc3ccccc3c2)CC1.Cl
3. CC(=O)N1CCN(C(=O)C(Cc2cccc(C(=N)N)c2)NS(=O)(=O)c2ccc3ccccc3c2)CC1 (stereo not drawn)

A:
898 ng/mL
2700 ng/mL
1080 ng/mL
